- protocol details: physchem
- condition label: 25 °C, pH 4.5, aqueous buffer, thermodynamic from solid
reported metric: solubility at 24 h (µg/mL)
Give the quantity in µg/mL, number only.

Q) Given the entry C[C@@H]1CC[C@@H](Nc2nc(NC(C)(C)C)ncc2C(N)=O)C[C@H]1O [Form A] , report its measured solubility at 24 h.
A) 289

====

- protocol details: physchem
- condition label: 25 °C, thermodynamic from solid
reported metric: solubility at 24 h (µg/mL)
Give the quantity in µg/mL, number only.

Q) Given the entry C[C@@H]1CC[C@@H](Nc2nc(NC(C)(C)C)ncc2C(N)=O)C[C@H]1O [Form A] , report its measured solubility at 24 h.
A) 38
